measured on: Rat intestinal sucrase (Rattus norvegicus, UniProt P23739)
Sequence (P23739 whole entry): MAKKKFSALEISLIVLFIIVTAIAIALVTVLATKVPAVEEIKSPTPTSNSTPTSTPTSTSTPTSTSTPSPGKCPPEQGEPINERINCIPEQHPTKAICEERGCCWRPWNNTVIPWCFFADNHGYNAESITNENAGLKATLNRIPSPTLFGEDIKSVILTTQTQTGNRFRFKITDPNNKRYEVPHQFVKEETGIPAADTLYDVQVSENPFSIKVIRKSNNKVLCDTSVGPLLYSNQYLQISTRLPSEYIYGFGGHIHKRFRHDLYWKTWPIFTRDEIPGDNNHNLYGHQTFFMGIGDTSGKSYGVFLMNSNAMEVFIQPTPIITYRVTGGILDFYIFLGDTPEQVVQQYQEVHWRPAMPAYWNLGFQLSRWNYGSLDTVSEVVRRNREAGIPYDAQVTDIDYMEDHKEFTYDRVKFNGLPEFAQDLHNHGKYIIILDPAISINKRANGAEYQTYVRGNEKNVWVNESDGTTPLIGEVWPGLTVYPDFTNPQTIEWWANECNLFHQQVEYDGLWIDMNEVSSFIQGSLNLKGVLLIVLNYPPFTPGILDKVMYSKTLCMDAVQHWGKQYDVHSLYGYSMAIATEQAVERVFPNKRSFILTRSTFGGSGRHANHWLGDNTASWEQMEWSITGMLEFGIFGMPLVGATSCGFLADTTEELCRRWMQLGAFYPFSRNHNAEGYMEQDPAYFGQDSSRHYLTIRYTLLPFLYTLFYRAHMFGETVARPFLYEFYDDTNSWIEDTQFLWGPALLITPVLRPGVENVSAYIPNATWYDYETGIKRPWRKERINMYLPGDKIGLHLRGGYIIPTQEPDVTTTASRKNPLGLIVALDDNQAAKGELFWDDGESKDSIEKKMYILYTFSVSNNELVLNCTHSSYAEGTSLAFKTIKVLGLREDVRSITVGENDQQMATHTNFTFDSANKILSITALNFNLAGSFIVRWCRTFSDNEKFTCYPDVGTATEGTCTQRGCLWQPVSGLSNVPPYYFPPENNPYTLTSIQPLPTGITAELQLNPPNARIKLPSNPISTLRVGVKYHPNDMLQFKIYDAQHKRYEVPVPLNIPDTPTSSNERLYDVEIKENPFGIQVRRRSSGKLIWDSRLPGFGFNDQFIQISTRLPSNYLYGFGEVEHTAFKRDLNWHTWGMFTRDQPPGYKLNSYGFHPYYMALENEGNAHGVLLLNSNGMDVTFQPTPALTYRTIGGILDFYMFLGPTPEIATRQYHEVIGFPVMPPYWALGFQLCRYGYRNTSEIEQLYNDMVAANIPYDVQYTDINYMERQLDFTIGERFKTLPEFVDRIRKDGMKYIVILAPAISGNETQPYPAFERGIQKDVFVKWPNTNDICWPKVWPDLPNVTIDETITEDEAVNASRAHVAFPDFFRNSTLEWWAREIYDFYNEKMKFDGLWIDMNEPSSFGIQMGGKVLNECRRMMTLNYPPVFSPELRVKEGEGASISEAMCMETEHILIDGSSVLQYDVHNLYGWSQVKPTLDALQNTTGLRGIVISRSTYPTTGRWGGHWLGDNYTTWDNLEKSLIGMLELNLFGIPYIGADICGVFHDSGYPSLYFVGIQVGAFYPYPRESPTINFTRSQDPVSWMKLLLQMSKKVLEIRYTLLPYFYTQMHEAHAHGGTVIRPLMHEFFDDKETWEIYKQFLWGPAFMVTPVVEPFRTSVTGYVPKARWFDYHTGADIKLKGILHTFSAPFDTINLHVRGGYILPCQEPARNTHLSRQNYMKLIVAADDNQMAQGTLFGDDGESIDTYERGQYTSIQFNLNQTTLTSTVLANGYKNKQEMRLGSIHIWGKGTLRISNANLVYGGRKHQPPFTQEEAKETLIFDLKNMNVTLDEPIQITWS
assay overview: Inhibition of rat intestinal sucrase (natural substrate, glucose release)
measurement conditions: isolated enzyme in vitro; mean of three measurements; read-out: IC50, α-Glucosidase, Rat intestinal sucrase
pIC50: −log10 of the molar value.
The entries below are paired with their reported pIC50.
experimental readout: pIC50

molecule="Cc1c(C)c2c(c(C)c1OCCCCCN1CC(O)C(O)C(O)C1CO)CCC(C)(CCCC(C)CCCC(C)CCCC(C)C)O2 (centres unmarked)" value_modifier=< assay_value=4.30
molecule="CCCCN1CC(O)C(O)C(O)C1CO [Compound 2, N-butyl-D-1-deoxynojirimycin, reference compound]" value_modifier== assay_value=6.37
